Each entry below lists one item and its recorded EC50 value.
# SYSTEM TESTED: T1, human Fn14, full-length, expressed on the cell surface (human, UniProt Q9NP84 28-129)
# T1 construct: Also used for Fn14 on tumour cell lines (WiDr, A375) and in tissue sections; also called huFn14; hu Fn14
# TEST SUMMARY: FACS dilution titration on 293E cells transiently overexpressing human Fn14; value is C (midpoint) of the printed 4-P fit y=(A-D)/(1+(x/C)^B)+D, x in ug/ml

>  <BINDER>
humanized P4A8 (H1/L2) huIgG1, kappa (antibody, V domains shown, One of the 'six versions of huP4A8' (two heavy chains by three light chains) expressed transiently in 293E cells; also called version of huP4A8 H1/L2) VH: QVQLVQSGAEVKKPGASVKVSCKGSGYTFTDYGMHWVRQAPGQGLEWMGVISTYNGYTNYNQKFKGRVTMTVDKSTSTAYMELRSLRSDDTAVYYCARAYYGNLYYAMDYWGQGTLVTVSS VL: DIVLTQSPASLAVSLGQRATISCRASKSVSTSSYSYMHWYQQKPGQPPKLLIKYASNLESGVPARFSGSGSGTDFILNIHPMEEDDTAMYFCQHSRELPFTFGGGTKLEIKR

>  <EC50>
0.178 µg/mL

$$$$
>  <BINDER>
humanized P4A8 (H1/L3) huIgG1, kappa (antibody, V domains shown, One of the 'six versions of huP4A8'; also called version of huP4A8 H1/L3) VH: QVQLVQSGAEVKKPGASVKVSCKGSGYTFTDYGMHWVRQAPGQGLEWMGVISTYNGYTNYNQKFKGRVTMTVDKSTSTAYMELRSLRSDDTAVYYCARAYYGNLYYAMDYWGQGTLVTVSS VL: DIVLTQSPASLAVSLGQRATISCRASKSVSTSSYSYMHWYQQKPGQPPKLLIKYASNLESGVPARFSGSGSGTDFILNIHPMEEDDTATYYCQHSRELPFTFGGGTKLEIKR

>  <EC50>
0.172 µg/mL

$$$$
>  <BINDER>
humanized P4A8 (H2/L3) huIgG1, kappa (antibody, V domains shown, One of the 'six versions of huP4A8'; also called version of huP4A8 H2/L3) VH: QVQLVQSGAEVKKPGASVKVSCKGSGYTFTDYGMHWVRQAPGQGLEWIGVISTYNGYTNYNQKFKGRATMTVDKSTSTAYMELRSLRSDDTAVYYCARAYYGNLYYAMDYWGQGTLVTVSS VL: DIVLTQSPASLAVSLGQRATISCRASKSVSTSSYSYMHWYQQKPGQPPKLLIKYASNLESGVPARFSGSGSGTDFILNIHPMEEDDTATYYCQHSRELPFTFGGGTKLEIKR

>  <EC50>
0.175 µg/mL

$$$$
>  <BINDER>
humanized P4A8 (H2/L2) huIgG1, kappa (antibody, V domains shown, One of the 'six versions of huP4A8'; also called version of huP4A8 H2/L2) VH: QVQLVQSGAEVKKPGASVKVSCKGSGYTFTDYGMHWVRQAPGQGLEWIGVISTYNGYTNYNQKFKGRATMTVDKSTSTAYMELRSLRSDDTAVYYCARAYYGNLYYAMDYWGQGTLVTVSS VL: DIVLTQSPASLAVSLGQRATISCRASKSVSTSSYSYMHWYQQKPGQPPKLLIKYASNLESGVPARFSGSGSGTDFILNIHPMEEDDTAMYFCQHSRELPFTFGGGTKLEIKR

>  <EC50>
0.179 µg/mL

$$$$
>  <BINDER>
humanized P4A8 (H2/L1) huIgG1, kappa (antibody, V domains shown, One of the 'six versions of huP4A8'; also called version of huP4A8 H2/L1) VH: QVQLVQSGAEVKKPGASVKVSCKGSGYTFTDYGMHWVRQAPGQGLEWIGVISTYNGYTNYNQKFKGRATMTVDKSTSTAYMELRSLRSDDTAVYYCARAYYGNLYYAMDYWGQGTLVTVSS VL: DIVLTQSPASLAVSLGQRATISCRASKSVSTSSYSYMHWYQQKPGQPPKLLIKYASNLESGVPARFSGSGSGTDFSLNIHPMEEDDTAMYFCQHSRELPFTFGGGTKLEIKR

>  <EC50>
0.175 µg/mL

$$$$
